Provide the reported IC50, FXa restoring assay of each item.
- subject of test: recombinant TFPI of the FXa restoring assay (human, mouse or rat; not specified for Tables 9 and 10)
- Sequence (P10646 29-304): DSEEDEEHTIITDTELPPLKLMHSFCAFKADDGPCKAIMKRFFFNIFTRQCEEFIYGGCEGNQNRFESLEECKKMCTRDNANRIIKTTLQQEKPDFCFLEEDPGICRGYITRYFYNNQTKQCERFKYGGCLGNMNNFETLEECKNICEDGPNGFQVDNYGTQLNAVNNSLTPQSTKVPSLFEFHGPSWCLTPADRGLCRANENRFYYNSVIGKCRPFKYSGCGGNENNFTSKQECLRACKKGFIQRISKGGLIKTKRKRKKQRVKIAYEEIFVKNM
- method summary: cell-based or functional assay
Entry rule: numbers only, all in µg/mL.

IN: Requested read-out: IC50, FXa restoring assay. Entry: 2A8 HC_K99V (Fab, V domains shown, also called 2A8-10) VH: QVQLVESGGGLVQPGGSLRLSCAASGFTFRSYGMSWVRQAPGKGLEWVSSIRGSSSSTYYADSVKGRFTISRDNSKNTLYLQMNSLRAEDTAVYYCARVYRYWFDYWGQGTLVTVSS VL: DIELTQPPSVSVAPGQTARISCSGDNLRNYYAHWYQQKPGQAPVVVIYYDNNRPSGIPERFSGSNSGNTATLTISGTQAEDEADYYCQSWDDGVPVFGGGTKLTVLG
OUT: 0.39

IN: Requested read-out: IC50, FXa restoring assay. Entry: 4B7 HC_D62R (Fab, V domains shown, also called 4B7-D62R) VH: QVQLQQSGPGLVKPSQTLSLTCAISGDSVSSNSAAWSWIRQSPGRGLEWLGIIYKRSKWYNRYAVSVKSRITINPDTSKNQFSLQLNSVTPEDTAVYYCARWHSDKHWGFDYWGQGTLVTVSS VL: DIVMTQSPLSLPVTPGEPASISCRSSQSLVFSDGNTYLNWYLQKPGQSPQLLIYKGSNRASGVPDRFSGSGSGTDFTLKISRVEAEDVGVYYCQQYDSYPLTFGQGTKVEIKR
OUT: 0.058

IN: Requested read-out: IC50, FXa restoring assay. Entry: 2A8 LC_D91L (Fab, V domains shown, also called 2A8-16) VH: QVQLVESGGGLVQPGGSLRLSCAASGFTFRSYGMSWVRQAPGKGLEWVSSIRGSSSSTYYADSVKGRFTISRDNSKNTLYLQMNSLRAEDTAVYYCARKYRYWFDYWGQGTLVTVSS VL: DIELTQPPSVSVAPGQTARISCSGDNLRNYYAHWYQQKPGQAPVVVIYYDNNRPSGIPERFSGSNSGNTATLTISGTQAEDEADYYCQSWLDGVPVFGGGTKLTVLG
OUT: 0.37

IN: Requested read-out: IC50, FXa restoring assay. Entry: 2A8 LC_D91K (Fab, V domains shown, also called 2A8-15) VH: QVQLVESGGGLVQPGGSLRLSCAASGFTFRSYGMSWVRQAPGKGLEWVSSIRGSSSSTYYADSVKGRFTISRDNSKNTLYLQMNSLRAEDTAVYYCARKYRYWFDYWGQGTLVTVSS VL: DIELTQPPSVSVAPGQTARISCSGDNLRNYYAHWYQQKPGQAPVVVIYYDNNRPSGIPERFSGSNSGNTATLTISGTQAEDEADYYCQSWKDGVPVFGGGTKLTVLG
OUT: 0.34

IN: Requested read-out: IC50, FXa restoring assay. Entry: 2A8 HC_S35D (Fab, V domains shown, also called 2A8-4) VH: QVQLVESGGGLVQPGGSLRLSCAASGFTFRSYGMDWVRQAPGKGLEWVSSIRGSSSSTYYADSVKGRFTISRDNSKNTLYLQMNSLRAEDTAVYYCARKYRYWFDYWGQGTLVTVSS VL: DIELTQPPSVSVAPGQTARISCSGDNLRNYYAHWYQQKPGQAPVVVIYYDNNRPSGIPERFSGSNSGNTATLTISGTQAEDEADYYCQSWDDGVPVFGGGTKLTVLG
OUT: 0.55

IN: Requested read-out: IC50, FXa restoring assay. Entry: 2A8 HC_S31V (Fab, V domains shown, also called 2A8-3) VH: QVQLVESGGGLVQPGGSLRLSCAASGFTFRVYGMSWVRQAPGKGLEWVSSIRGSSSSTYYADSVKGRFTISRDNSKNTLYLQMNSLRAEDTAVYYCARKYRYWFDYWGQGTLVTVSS VL: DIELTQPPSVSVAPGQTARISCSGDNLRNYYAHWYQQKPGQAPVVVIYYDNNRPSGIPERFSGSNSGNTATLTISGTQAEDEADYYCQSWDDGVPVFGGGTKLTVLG
OUT: 0.201

IN: Requested read-out: IC50, FXa restoring assay. Entry: 2A8 HC_I51E (Fab, V domains shown, also called 2A8-6) VH: QVQLVESGGGLVQPGGSLRLSCAASGFTFRSYGMSWVRQAPGKGLEWVSSERGSSSSTYYADSVKGRFTISRDNSKNTLYLQMNSLRAEDTAVYYCARKYRYWFDYWGQGTLVTVSS VL: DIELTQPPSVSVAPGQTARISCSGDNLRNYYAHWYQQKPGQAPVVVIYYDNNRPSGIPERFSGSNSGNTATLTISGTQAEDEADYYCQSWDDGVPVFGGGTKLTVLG
OUT: 0.76

IN: Requested read-out: IC50, FXa restoring assay. Entry: 2A8 wild-type Fab (Fab, V domains shown, Fab with c-myc (or HA, or none) and 6xHis tag at the C-terminus of the heavy chain; also called 2A8wt; 2A8 wt) VH: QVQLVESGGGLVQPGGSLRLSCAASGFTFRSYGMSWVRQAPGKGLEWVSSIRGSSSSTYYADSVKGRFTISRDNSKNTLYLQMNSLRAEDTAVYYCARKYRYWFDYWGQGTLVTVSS VL: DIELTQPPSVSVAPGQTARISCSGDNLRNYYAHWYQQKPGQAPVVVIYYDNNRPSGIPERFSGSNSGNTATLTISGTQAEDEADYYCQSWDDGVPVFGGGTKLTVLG
OUT: 0.7
